- tgt: Lck (Homo sapiens, UniProt P06239)
- Construct: purchased Eurofins Pharma Discovery Services UK Limited
- method: Lck Activity above control (1µM)
Each record here notes measured Lck Activity above control (1 µM).
// note: answer is a bare numeric in %

Below: 4 substances and their reported Lck Activity above control (1 µM).
INSERT INTO assay_data (substance, tgt, readoutunit, resultnumber) VALUES
  ('HHH-RRRRRRRRR-HHH (SEQ ID NO: 16, IK03930) (HHHRRRRRRRRRHHH)', 'Lck (Homo sapiens, UniProt P06239)', '%', 386),
  ('RRRRRRRRRRRR (SEQ ID NO: 8, IK01200)', 'Lck (Homo sapiens, UniProt P06239)', '%', 401),
  ('RRRRRRRRRR (SEQ ID NO: 7, IK00100)', 'Lck (Homo sapiens, UniProt P06239)', '%', 389),
  ('KKKKKKKK-HHHHHHHHHH (SEQ ID NO: 18, IK00K10)', 'Lck (Homo sapiens, UniProt P06239)', '%', 70);

Alright, here's another substance for you.
With Lck (Homo sapiens, UniProt P06239) as the test system, HHHHH-RRRRRRRRR-HHHHH (SEQ ID NO: 17, IK05950) (HHHHHRRRRRRRRRHHHHH) showed Lck Activity above control (1 µM) of 286

###

- tgt: Lck (Homo sapiens, UniProt P06239)
- Construct: purchased Eurofins Pharma Discovery Services UK Limited
- method: Lck Activity above control (1µM)
Where no end group is shown, it is not given here.
# Lck Activity above control (1 µM) per record follows
The reply should be a number in %, with the unit left off.

Below: 3 substances and their reported Lck Activity above control (1 µM).
INSERT INTO results (substance, tgt, resultnumber) VALUES
  ('RSKAKNPLY-RRRRRRRRR-NH2 (SEQ ID NO: 24, IK14800) (RSKAKNPLYRRRRRRRRR-NH2)', 'Lck (Homo sapiens, UniProt P06239)', 377),
  ('RRRRRRRRRRRRRRRRRRRR (SEQ ID NO: 12, IK00200) (RRRRRRRRRRRRRRRRRRRRR)', 'Lck (Homo sapiens, UniProt P06239)', 279),
  ('HHHHHHHHHH (SEQ ID NO: 14, 10His)', 'Lck (Homo sapiens, UniProt P06239)', 0);

Reported Lck Activity above control (1 µM) of RRRRRRRR-HHHHHHHHHH (SEQ ID NO: 19, IK00810) (RRRRRRRRHHHHHHHHHH) : 259

So, RRRRRR (SEQ ID NO: 3, IK00600) ? Its Lck Activity above control (1 µM) was 0

Lck Activity above control (1 µM) for DSEAENPLY-DDDDDDDDD-NH2 (SEQ ID NO: 23, IKDE800) (DSEAENPLYDDDDDDDDD-NH2) is 0

Form field Lck Activity above control (1 µM), entry DDDDDDDDD-NH2 (SEQ ID NO: 21, IKD9) : 0

###

- tgt: Lck (Homo sapiens, UniProt P06239)
- Construct: purchased Eurofins Pharma Discovery Services UK Limited
- method: In vitro Lck activation kinase study (Eurofins)
- Type: biochemical
- testContext: peptide 1 μM where stated
- Sequence (P06239 whole entry): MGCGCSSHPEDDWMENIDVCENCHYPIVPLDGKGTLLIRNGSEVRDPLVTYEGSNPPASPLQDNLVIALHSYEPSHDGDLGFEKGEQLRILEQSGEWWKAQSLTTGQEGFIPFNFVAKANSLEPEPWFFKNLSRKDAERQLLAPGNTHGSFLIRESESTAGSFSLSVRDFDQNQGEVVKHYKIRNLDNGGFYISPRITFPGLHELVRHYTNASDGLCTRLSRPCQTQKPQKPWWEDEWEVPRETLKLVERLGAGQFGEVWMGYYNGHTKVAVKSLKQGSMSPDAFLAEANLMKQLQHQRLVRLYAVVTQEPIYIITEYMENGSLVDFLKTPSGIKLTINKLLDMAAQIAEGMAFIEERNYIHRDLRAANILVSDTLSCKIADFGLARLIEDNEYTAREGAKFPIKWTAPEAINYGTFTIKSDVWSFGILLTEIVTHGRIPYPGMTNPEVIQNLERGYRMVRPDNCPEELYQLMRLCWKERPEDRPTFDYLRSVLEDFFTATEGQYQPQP
Where no end group is shown, it is not given here. 2Adod = 2-amino-dodecanoic acid
propertyName: Lck activation (in words)

INSERT INTO assay_data (substance, tgt, propertyname, result) VALUES
  ('RSKAKNPLYR (RSKAKNPLYR-{2Adod-2Adod-2Adod-2Adod-NH2}) [IK14000]', 'Lck (Homo sapiens, UniProt P06239)', 'Lck activation (in words)', 'do not activate Lck'),
  ('RRRRRR [SEQ ID NO: 3]', 'Lck (Homo sapiens, UniProt P06239)', 'Lck activation (in words)', 'do not activate Lck'),
  ('RSKAKNPLY-RRRR (RSKAKNPLYRRRR) [SEQ ID NO: 32]', 'Lck (Homo sapiens, UniProt P06239)', 'Lck activation (in words)', 'no Lck activation'),
  ('RSKAKNPLY [IK94000]', 'Lck (Homo sapiens, UniProt P06239)', 'Lck activation (in words)', 'no Lck activation');
